These measurements were taken from paper PMC8876231.

Answer each item with its documented Inhibition of HSD17B10 at 10 µM in %.
Target: HSD17B10 (Homo sapiens, UniProt Q99714)
Construct: GST (own knowledge: pGEX vectors encode N-terminal GST); made in house; host or cells: E. coli BL21 DE3 Codon Plus RP
Sequence (Q99714 1-261): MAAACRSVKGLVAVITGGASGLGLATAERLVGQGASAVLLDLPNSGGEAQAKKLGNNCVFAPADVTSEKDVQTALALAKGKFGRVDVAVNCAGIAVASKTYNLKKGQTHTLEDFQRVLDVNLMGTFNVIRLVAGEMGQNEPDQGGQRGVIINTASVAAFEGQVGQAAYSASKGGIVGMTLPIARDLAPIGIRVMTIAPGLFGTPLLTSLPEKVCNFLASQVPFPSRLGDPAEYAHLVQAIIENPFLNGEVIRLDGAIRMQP
Assay: HSD17B10 inhibition assay (oestradiol to estrone)
Type: biochemical
Conditions: 10 µM compound; mean ± SD
Provide the measurement as a number trailed by its unit.

Use the examples below as a reference point.
                                   molecule  experimentalvalue
0  COc1cc(O)cc(O)c1C(=O)/C=C/c1ccc(Cl)cc1Cl [Compound 25]        -0.5 ± 7.3%
1  Cc1cccc(/C=C/C(=O)c2c(O)cc(O)cc2O)c1 [Compound 20]        -2.5 ± 0.7%
2  Cc1ccc(/C=C/C(=O)c2c(O)cc(O)cc2O)cc1 [Compound 21]         8.0 ± 6.5%
3  COc1ccc(/C=C/C(=O)c2c(O)cc(O)cc2OC)cc1 [Compound 18]        -0.5 ± 6.5%

Given item COc1ccc(/C=C/C(=O)c2c(O)cc(O)cc2O)cc1 [Compound 19] , the value recorded as its Inhibition of HSD17B10 at 10 µM in % is 2.2 ± 2.6%

---

Answer each item with its documented Inhibition of HSD17B14 at 10 µM in %.
Biological target: HSD17B14 (Homo sapiens, UniProt Q9BPX1, T205S)
Construct: His6 (own knowledge: the SGC p11 vector encodes an N-terminal His tag with TEV site); made in house; host or cells: E. coli BL21 DE3
Sequence (Q9BPX1 whole entry T205S): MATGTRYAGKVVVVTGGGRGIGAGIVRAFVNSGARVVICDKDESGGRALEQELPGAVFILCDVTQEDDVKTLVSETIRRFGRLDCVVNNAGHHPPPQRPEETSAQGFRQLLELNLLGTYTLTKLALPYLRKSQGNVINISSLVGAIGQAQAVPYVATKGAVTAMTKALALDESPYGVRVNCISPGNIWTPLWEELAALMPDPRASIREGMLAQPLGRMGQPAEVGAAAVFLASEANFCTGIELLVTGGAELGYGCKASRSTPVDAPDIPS
Experiment: HSD17B14 (S205 variant) inhibition assay (oestradiol to estrone)
Type: biochemical
Details: 10 µM compound; mean ± SD
Answers are plain numbers, in %.

Use the examples below as a reference point.
In [3]: df
Out[3]:
                                   compound                     measuredparameter  outputunit  experimentalvalue
0  COc1cc(O)cc(O)c1C(=O)/C=C/c1ccc(Cl)cc1Cl  Inhibition of HSD17B14 at 10 µM in %           %               -3.2
1      Cc1ccc(/C=C/C(=O)c2c(O)cc(O)cc2O)cc1  Inhibition of HSD17B14 at 10 µM in %           %               -8.0
2    COc1ccc(/C=C/C(=O)c2c(O)cc(O)cc2OC)cc1  Inhibition of HSD17B14 at 10 µM in %           %               24.9
3      Cc1cccc(/C=C/C(=O)c2c(O)cc(O)cc2O)c1  Inhibition of HSD17B14 at 10 µM in %           %               18.5

We next turn to a different compound, shown below.
Given item COc1ccc(/C=C/C(=O)c2c(O)cc(O)cc2O)cc1 , the value recorded as its Inhibition of HSD17B14 at 10 µM in % is 1.8

---

Target: HSD17B1 (Homo sapiens)
Construct: GST (own knowledge: pGEX vectors encode N-terminal GST); made in house; host or cells: E. coli BL21 DE3 Codon Plus RP
Sequence (P14061 whole entry): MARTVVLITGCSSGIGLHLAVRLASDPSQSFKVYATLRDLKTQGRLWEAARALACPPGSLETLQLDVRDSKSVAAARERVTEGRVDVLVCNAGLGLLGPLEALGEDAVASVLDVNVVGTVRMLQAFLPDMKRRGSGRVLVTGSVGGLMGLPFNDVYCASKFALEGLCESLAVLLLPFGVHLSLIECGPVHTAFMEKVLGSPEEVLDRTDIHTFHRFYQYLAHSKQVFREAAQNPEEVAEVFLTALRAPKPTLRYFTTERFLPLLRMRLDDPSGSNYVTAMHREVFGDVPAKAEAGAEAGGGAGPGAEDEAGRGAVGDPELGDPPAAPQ
Experiment: HSD17B1 inhibition assay (estrone to oestradiol)
Type: biochemical
Settings: 10 µM compound; mean ± SD
Answer each item with its documented Inhibition of HSD17B1 at 10 µM in %.
Answers are plain numbers, in %.

Use the examples below as a reference point.
>>> df
                                 compound  experimentalvalue
0  COc1ccc(/C=C/C(=O)c2c(O)cc(O)cc2OC)cc1               46.5
1    Cc1cccc(/C=C/C(=O)c2c(O)cc(O)cc2O)c1               51.8
2   COc1ccc(/C=C/C(=O)c2c(O)cc(O)cc2O)cc1               42.3

Given item Cc1ccc(/C=C/C(=O)c2c(O)cc(O)cc2O)cc1 , the value recorded as its Inhibition of HSD17B1 at 10 µM in % is 42.8

---

Molecular target: HSD17B3 (Homo sapiens, UniProt P37058)
Construct: expressed in transfected cells
Sequence (P37058 1-310): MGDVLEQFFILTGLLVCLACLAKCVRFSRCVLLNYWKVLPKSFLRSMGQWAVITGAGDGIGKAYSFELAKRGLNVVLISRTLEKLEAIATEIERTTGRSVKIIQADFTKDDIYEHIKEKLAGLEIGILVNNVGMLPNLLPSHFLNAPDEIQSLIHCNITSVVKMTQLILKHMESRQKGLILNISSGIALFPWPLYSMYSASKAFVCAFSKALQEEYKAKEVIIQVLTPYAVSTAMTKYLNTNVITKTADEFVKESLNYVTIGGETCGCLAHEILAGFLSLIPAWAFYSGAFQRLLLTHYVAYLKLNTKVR
Experiment: HSD17B3 inhibition assay (∆4-androstene-3,17-dione to testosterone, HEK293 stably expressing HSD17B3)
Format: biochemical
Conditions: 10 µM compound; mean ± SD
measuredParameter: Inhibition of HSD17B3 at 10 µM in % (%)
Answers are plain numbers, in %.

Use the examples below as a reference point.
>>> print(df.to_string())
                                   molecule                    measuredparameter  experimentalvalue
0  Cc1cccc(/C=C/C(=O)c2c(O)cc(O)cc2O)c1 [Compound 20]  Inhibition of HSD17B3 at 10 µM in %               55.9
1  COc1ccc(/C=C/C(=O)c2c(O)cc(O)cc2OC)cc1 [Compound 18]  Inhibition of HSD17B3 at 10 µM in %               24.8
2  Cc1ccc(/C=C/C(=O)c2c(O)cc(O)cc2O)cc1 [Compound 21]  Inhibition of HSD17B3 at 10 µM in %               52.7
3  COc1cc(O)cc(O)c1C(=O)/C=C/c1ccc(Cl)cc1Cl [Compound 25]  Inhibition of HSD17B3 at 10 µM in %               20.9

Given item COc1ccc(/C=C/C(=O)c2c(O)cc(O)cc2O)cc1 [Compound 19] , the value recorded as its Inhibition of HSD17B3 at 10 µM in % is 41.8

---

Biological target: AKR1C3 (Homo sapiens)
Construct: GST (own knowledge: pGEX vectors encode N-terminal GST)
Sequence (P42330 whole entry): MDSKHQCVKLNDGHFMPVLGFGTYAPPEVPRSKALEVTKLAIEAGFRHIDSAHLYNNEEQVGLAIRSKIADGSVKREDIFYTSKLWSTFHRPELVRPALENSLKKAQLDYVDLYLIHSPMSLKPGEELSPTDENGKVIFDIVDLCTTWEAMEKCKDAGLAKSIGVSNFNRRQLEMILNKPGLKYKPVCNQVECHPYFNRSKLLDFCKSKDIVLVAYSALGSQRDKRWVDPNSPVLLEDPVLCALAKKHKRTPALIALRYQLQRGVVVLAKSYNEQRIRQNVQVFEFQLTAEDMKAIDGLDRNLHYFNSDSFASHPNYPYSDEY
Experiment: AKR1C3 enzymatic inhibition assay (∆4-androstene-3,17-dione to testosterone)
Conditions: ∆4-androstene-3,17-dione reduction; one-site ligand binding fit; mean ± SD
measuredParameter: pIC50
Numbers only, as −log10 of the molar value.

Use the examples below as a reference point.
                                 compound  measuredparameter  experimentalvalue
0  COc1ccc(/C=C/C(=O)c2c(O)cc(O)cc2OC)cc1              pIC50               4.92
1    Cc1ccc(/C=C/C(=O)c2c(O)cc(O)cc2O)cc1              pIC50               5.29
2    Cc1cccc(/C=C/C(=O)c2c(O)cc(O)cc2O)c1              pIC50               5.71

Below are 2 compounds. Give each one its pIC50.
1. COc1ccc(/C=C/C(=O)c2c(O)cc(O)cc2O)cc1
2. O=C(/C=C/c1ccc(Cl)cc1Cl)c1c(O)cc(O)cc1O [Compound 23, 2,4-dichloro-2′,4′,6′-trihydroxychalcone]

result:
5.63
5.97

---

Answer each item with its documented Inhibition of HSD17B4 at 10 µM in %.
Target: HSD17B4 (Homo sapiens, UniProt P51659)
Construct: pGEX-HSD17B4 (SDR domain) in; GST (own knowledge: pGEX vectors encode N-terminal GST); made in house; host or cells: E. coli BL21 DE3 Codon Plus RP
Sequence (P51659 1-305 limits assumed): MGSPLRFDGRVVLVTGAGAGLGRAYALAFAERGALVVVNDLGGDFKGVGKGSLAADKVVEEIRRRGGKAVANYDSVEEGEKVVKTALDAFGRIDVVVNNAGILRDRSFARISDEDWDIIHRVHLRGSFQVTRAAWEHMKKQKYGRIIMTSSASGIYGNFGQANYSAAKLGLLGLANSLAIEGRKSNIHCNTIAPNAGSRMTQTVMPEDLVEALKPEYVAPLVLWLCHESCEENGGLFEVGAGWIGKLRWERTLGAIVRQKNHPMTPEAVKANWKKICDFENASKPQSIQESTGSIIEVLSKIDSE
Experiment: HSD17B4 (SDR domain) inhibition assay (oestradiol to estrone)
Format: biochemical
Details: 10 µM compound; mean ± SD
Give bare numbers, in %.

Use the examples below as a reference point.
                                   molecule  outputunit  experimentalvalue
0  COc1ccc(/C=C/C(=O)c2c(O)cc(O)cc2O)cc1 [Compound 19]           %                2.0
1  Cc1cccc(/C=C/C(=O)c2c(O)cc(O)cc2O)c1 [Compound 20]           %                8.6
2  COc1cc(O)cc(O)c1C(=O)/C=C/c1ccc(Cl)cc1Cl [Compound 25]           %               -6.0
3  COc1ccc(/C=C/C(=O)c2c(O)cc(O)cc2OC)cc1 [Compound 18]           %                9.9

Given item Cc1ccc(/C=C/C(=O)c2c(O)cc(O)cc2O)cc1 [Compound 21] , the value recorded as its Inhibition of HSD17B4 at 10 µM in % is 3.0
